# Tested on: erythrocyte suspensions of human blood
# ASSAY REMARKS: Hemolytic activity, hemoglobin release
# Type: cell-based
# TEST SETTINGS: peptide 125 μM (table prints 125 µM); human blood erythrocytes 5% v/v; absorbance 540 nm; percentage compared to melittin; three replicates
Peptide text beside a SMILES is read from it.
Given measured Hemolysis (%) at 125 µM, output true (1) if it is greater than or equal to 30% and false (0) if not.

Here are 6 compounds together with their reported answers.
* CC(C)C[C@@H]1NC(=O)[C@H](CCCCN)NC(=O)[C@H](CCCCN)NC(=O)[C@H](Cc2c[nH]c3ccccc23)NC(=O)[C@H](CCCCN)NC(=O)[C@H](CCCCN)NC(=O)[C@H](CC(C)C)NC(=O)[C@H](CC(C)C)NC(=O)[C@H](CCCCN)NC(=O)[C@H](CCC(N)=O)NC1=O [BPC094W, c(KLLKKWKKLQ)] (cyclo(KKLQKLLKKW)) | true (1)
* CC(C)C[C@@H]1NC(=O)[C@H](CCCCN)NC(=O)[C@H](CCCCN)NC(=O)[C@H](CCC(N)=O)NC(=O)[C@H](CC(C)C)NC(=O)[C@H](CC(C)C)NC(=O)[C@H](CCCCN)NC(=O)[C@H](Cc2c[nH]c3ccccc23)NC(=O)[C@H](CCCCN)NC(=O)[C@H](CCCCN)NC1=O [BPC064W, c(KKLKKWKLLQ)] (cyclo(KKLKKWKLLQ)) | false (0)
* CC(C)C[C@@H]1NC(=O)[C@H](CCC(N)=O)NC(=O)[C@H](CCCCN)NC(=O)[C@H](CCCCN)NC(=O)[C@H](CC(C)C)NC(=O)[C@H](Cc2c[nH]c3ccccc23)NC(=O)[C@H](CCCCN)NC(=O)[C@H](CC(C)C)NC(=O)[C@H](CCCCN)NC(=O)[C@H](CCCCN)NC1=O [BPC140W, c(LKKLKWLKKQ)] (cyclo(KKLKWLKKQL)) | true (1)
* CC(C)C[C@@H]1NC(=O)[C@H](CCC(N)=O)NC(=O)[C@H](CCCCN)NC(=O)[C@H](CCCCN)NC(=O)[C@H](CC(C)C)NC(=O)[C@H](Cc2c[nH]c3ccccc23)NC(=O)[C@H](CC(C)C)NC(=O)[C@H](CCCCN)NC(=O)[C@H](CCCCN)NC(=O)[C@H](CCCCN)NC1=O [BPC134W, c(LKKKLWLKKQ)] (cyclo(KKKLWLKKQL)) | false (0)
* CC(C)C[C@@H]1NC(=O)[C@H](CCCCN)NC(=O)[C@H](CCCCN)NC(=O)[C@H](Cc2c[nH]c3ccccc23)NC(=O)[C@H](CCCCN)NC(=O)[C@H](CC(C)C)NC(=O)[C@H](CC(C)C)NC(=O)[C@H](CCCCN)NC(=O)[C@H](CC(C)C)NC(=O)[C@H](CCC(N)=O)NC1=O [BPC192W, c(LKLLKWKKLQ)] (cyclo(KKLQLKLLKW)) | false (0)
* CC(C)C[C@@H]1NC(=O)[C@H](CCCCN)NC(=O)[C@H](CCCCN)NC(=O)[C@H](Cc2c[nH]c3ccccc23)NC(=O)[C@H](CCCCN)NC(=O)[C@H](CCCCN)NC(=O)[C@H](CC(C)C)NC(=O)[C@H](CC(C)C)NC(=O)[C@H](CC(C)C)NC(=O)[C@H](CCC(N)=O)NC1=O [BPC188W, c(LLLKKWKKLQ)] (cyclo(KKLQLLLKKW)) | true (1)

Q: Hello, I need to know if CC(C)C[C@@H]1NC(=O)[C@H](CCCCN)NC(=O)[C@H](CCCCN)NC(=O)[C@H](CCC(N)=O)NC(=O)[C@H](CC(C)C)NC(=O)[C@H](CCCCN)NC(=O)[C@H](CCCCN)NC(=O)[C@H](Cc2c[nH]c3ccccc23)NC(=O)[C@H](CCCCN)NC(=O)[C@H](CCCCN)NC1=O [BPC194W, c(KKLKKWKKLQ)] (cyclo(KKLKKWKKLQ)) has measured Hemolysis (%) at 125 µM not below 30%. Thanks!
Result: false (0)

Q: Hello, I need to know if CC(C)C[C@@H]1NC(=O)[C@H](CCCCN)NC(=O)[C@H](CCCCN)NC(=O)[C@H](Cc2c[nH]c3ccccc23)NC(=O)[C@H](CC(C)C)NC(=O)[C@H](CCCCN)NC(=O)[C@H](CCCCN)NC(=O)[C@H](CC(C)C)NC(=O)[C@H](CCCCN)NC(=O)[C@H](CCC(N)=O)NC1=O [BPC084W, c(KLKKLWKKLQ)] (cyclo(KKLQKLKKLW)) has measured Hemolysis (%) at 125 µM not below 30%. Thanks!
Result: true (1)

Q: Hello, I need to know if CC(C)C[C@@H]1NC(=O)[C@H](CCCCN)NC(=O)[C@H](CCCCN)NC(=O)[C@H](CCC(N)=O)NC(=O)[C@H](CCCCN)NC(=O)[C@H](CC(C)C)NC(=O)[C@H](CC(C)C)NC(=O)[C@H](Cc2c[nH]c3ccccc23)NC(=O)[C@H](CCCCN)NC(=O)[C@H](CCCCN)NC1=O [BPC104W, c(KKLKKWLLKQ)] (cyclo(KKLKKWLLKQ)) has measured Hemolysis (%) at 125 µM not below 30%. Thanks!
Result: false (0)

Q: Hello, I need to know if CC(C)C[C@@H]1NC(=O)[C@H](CCCCN)NC(=O)[C@H](CCCCN)NC(=O)[C@H](Cc2c[nH]c3ccccc23)NC(=O)[C@H](CCCCN)NC(=O)[C@H](CC(C)C)NC(=O)[C@H](CC(C)C)NC(=O)[C@H](CC(C)C)NC(=O)[C@H](CCCCN)NC(=O)[C@H](CCC(N)=O)NC1=O [BPC184W, c(KLLLKWKKLQ)] (cyclo(KKLQKLLLKW)) has measured Hemolysis (%) at 125 µM not below 30%. Thanks!
Result: true (1)

Q: Hello, I need to know if CC(C)C[C@@H]1NC(=O)[C@H](CCCCN)NC(=O)[C@H](CCCCN)NC(=O)[C@H](Cc2c[nH]c3ccccc23)NC(=O)[C@H](CCCCN)NC(=O)[C@H](CC(C)C)NC(=O)[C@H](CCCCN)NC(=O)[C@H](CC(C)C)NC(=O)[C@H](CCCCN)NC(=O)[C@H](CCC(N)=O)NC1=O [BPC090W, c(KLKLKWKKLQ)] (cyclo(KKLQKLKLKW)) has measured Hemolysis (%) at 125 µM not below 30%. Thanks!
Result: false (0)

Q: Hello, I need to know if CC(C)C[C@@H]1NC(=O)[C@H](CCC(N)=O)NC(=O)[C@H](CC(C)C)NC(=O)[C@H](CCCCN)NC(=O)[C@H](CCCCN)NC(=O)[C@H](Cc2c[nH]c3ccccc23)NC(=O)[C@H](CCCCN)NC(=O)[C@H](CCCCN)NC(=O)[C@H](CCCCN)NC(=O)[C@H](CCCCN)NC1=O [BPC190W, c(LKKKKWKKLQ)] (cyclo(KKKKWKKLQL)) has measured Hemolysis (%) at 125 µM not below 30%. Thanks!
Result: false (0)

Values from paper PMC6150173
